Data provenance is patent US8080657B2.

Test system: Wnt signaling
Assay: TopFlash reporter gene bioassay in SW480 cells
Assay type: cell-based
Settings: Homo sapiens, SW480, TopFlash reporter gene assay, inhibition of Wnt signaling; read-out: RGA, IC50 (μM) TopF
QUANTITY: IC50 (µM)

{"SMILES REPR": "C=CCN1CC(=O)N2[C@@H](Cc3ccc(O)cc3)C(=O)N(Cc3ccc(OCCCC)cc3)C[C@@H]2N1C(=O)NCc1ccccc1", "REPORTED VALUE": 3.72}
{"SMILES REPR": "C=CCN1CC(=O)N2[C@@H](Cc3ccc(O)cc3)C(=O)N(Cc3cccc(C(=O)NCc4cccs4)c3)C[C@@H]2N1C(=O)NCc1ccccc1", "REPORTED VALUE": 0.73}
{"SMILES REPR": "C=CCN1CC(=O)N2[C@@H](Cc3ccc(O)cc3)C(=O)N(Cc3ccccc3-n3cnnn3)C[C@@H]2N1C(=O)NCc1ccccc1", "REPORTED VALUE": 15.7}
{"SMILES REPR": "C=CCN1CC(=O)N2[C@@H](Cc3ccc(O)cc3)C(=O)N(Cc3cccc4c(C(C)=O)cn(S(=O)(=O)c5ccc(Cl)cc5)c34)C[C@@H]2N1C(=O)NCc1ccccc1", "REPORTED VALUE": 0.18}
{"SMILES REPR": "C=CCN1CC(=O)N2[C@@H](Cc3ccc(O)cc3)C(=O)N(Cc3ccc(F)c4scnc34)C[C@@H]2N1C(=O)NCc1ccc(C)cc1", "REPORTED VALUE": 1.26}
{"SMILES REPR": "C=CCN1CC(=O)N2[C@@H](Cc3ccc(O)cc3)C(=O)N(Cc3cccc(OC)c3OC3CCCC3)C[C@@H]2N1C(=O)NCc1ccccc1", "REPORTED VALUE": 1.89}

###

Reported IC50 is given for each of the following compounds.
Tested on: Wnt signaling
Experiment: TopFlash reporter gene bioassay in SW480 cells
Format: cell-based
Conditions: Homo sapiens, SW480, TopFlash reporter gene assay, inhibition of Wnt signaling; read-out: RGA, IC50 (μM) TopF

{"COMPOUND": "C=CCN1CC(=O)N2[C@@H](Cc3ccc(O)cc3)C(=O)N(Cc3cccc(-c4cccc(OC)c4)c3)C[C@@H]2N1C(=O)NCc1ccccc1 [compound 137]", "IC50 / µM": 1.86}
{"COMPOUND": "C=CCN1CC(=O)N2[C@@H](Cc3ccc(O)cc3)C(=O)N(Cc3cccc4c(=O)ccoc34)C[C@@H]2N1C(=O)NCc1ccccc1 [compound 87]", "IC50 / µM": 1.01}
{"COMPOUND": "C=CCN1CC(=O)N2[C@@H](Cc3ccc(O)cc3)C(=O)N(Cc3cccnc3-c3ccccc3OC)C[C@@H]2N1C(=O)NCc1ccccc1 [compound 165]", "IC50 / µM": 17.2}
{"COMPOUND": "C=CCN1CC(=O)N2[C@@H](Cc3ccc(O)cc3)C(=O)N(Cc3ccc(OCC)cc3)C[C@@H]2N1C(=O)NCc1ccccc1 [compound 249]", "IC50 / µM": 6.8}
{"COMPOUND": "C=CCN1CC(=O)N2[C@@H](Cc3ccc(O)cc3)C(=O)N(Cc3cccc(N(C)C=O)c3)C[C@@H]2N1C(=O)NCc1ccccc1 [compound 113]", "IC50 / µM": 1.41}
{"COMPOUND": "C=CCN1CC(=O)N2[C@@H](Cc3ccc(O)cc3)C(=O)N(Cc3cccc(C(N)=O)c3)C[C@@H]2N1C(=O)NCc1ccccc1 [compound 207]", "IC50 / µM": 3.25}
